tgt: Non-receptor tyrosine-protein kinase TYK2 (Homo sapiens)
Sequence (P29597 whole entry): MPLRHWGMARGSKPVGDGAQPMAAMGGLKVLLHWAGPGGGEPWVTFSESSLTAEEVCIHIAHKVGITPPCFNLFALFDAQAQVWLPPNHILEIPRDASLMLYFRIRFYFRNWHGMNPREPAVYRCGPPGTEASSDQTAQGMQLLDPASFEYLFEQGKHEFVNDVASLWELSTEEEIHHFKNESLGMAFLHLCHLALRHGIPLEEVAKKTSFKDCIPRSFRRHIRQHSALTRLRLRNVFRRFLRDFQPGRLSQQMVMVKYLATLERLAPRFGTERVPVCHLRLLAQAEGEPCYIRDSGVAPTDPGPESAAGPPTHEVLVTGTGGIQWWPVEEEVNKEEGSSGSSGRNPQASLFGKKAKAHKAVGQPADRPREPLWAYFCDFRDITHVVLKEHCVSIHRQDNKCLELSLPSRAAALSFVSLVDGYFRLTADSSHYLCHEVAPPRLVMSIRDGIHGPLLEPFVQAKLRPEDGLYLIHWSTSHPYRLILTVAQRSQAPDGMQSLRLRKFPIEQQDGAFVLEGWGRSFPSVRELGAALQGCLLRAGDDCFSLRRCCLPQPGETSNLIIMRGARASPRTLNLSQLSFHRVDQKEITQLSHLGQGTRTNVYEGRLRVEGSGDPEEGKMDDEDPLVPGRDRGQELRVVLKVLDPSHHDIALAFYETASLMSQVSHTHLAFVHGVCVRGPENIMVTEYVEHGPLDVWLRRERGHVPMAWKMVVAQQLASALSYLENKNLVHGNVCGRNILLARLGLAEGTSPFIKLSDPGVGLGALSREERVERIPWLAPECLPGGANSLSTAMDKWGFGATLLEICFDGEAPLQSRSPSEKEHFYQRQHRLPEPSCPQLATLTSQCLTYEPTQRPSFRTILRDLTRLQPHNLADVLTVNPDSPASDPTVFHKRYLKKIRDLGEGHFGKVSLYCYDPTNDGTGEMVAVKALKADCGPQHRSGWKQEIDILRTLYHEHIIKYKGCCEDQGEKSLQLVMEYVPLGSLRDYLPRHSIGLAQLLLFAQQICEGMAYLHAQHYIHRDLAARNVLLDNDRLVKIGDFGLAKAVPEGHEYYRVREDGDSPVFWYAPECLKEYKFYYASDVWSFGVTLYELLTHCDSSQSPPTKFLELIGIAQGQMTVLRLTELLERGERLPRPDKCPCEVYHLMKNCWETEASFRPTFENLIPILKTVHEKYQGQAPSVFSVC
procedure_summary: Inhibition of TYK2 in human T-blast cells assessed as IL-12 induced STAT4 phosphorylation at Tyr694 residue preincubated for 30 mins followed by IL-12 stimulation and measured after 20 mins by AlphaScreen assay
Format: cell-based, T-blast cell
pEC50: −log10 of the molar value.
observable: pEC50

These solved cases illustrate the format of a correct answer.
1. CCS(=O)(=O)c1cccc(-c2cn(C)c3cnc(NC(C)=O)cc23)n1: 7.03
2. CO[C@@]1(c2cc(OCC[C@@H](C)O)cc(-c3cn(C)c4cnc(NC(C)=O)cc34)n2)CCOC1: 7.11
3. CC(=O)Nc1cc2c(-c3cccc(S(=O)(=O)N(C)C)n3)cn(C)c2cn1: 7.62
4. CO[C@@]1(c2cccc(-c3cn(C)c4cnc(NC(N)=O)cc34)n2)CCOC1: 7.22
5. COCc1cc(-c2cn(C3COC3)c3cnc(NC(C)=O)cc23)nc([C@]2(OC)CCOC2)c1: 6.71

P: CO[C@@]1(c2cc(C(F)F)cc(-c3cn(C)c4cnc(NC(C)=O)cc34)n2)CCOC1
Q: CN(C)S(=O)(=O)c1cccc(-c2c[nH]c3cnc(NC(=O)C4CC4)cc23)c1
Query string: Hey, between P and Q which has a smaller measured pEC50? // caller expects the label of the chosen entry
Result string: Q
(Q: 6.27, P: 7.40)
